Reported IC50 by item:
Test: Inhibition of swine H+/K+-ATPase after 30 mins by colorimetry
Design: species or system Sus scrofa
Structures can show the parent of a compound that is named as a salt.
Could you give me the number in nM? Just the number is fine.

Please review the entries below; each comes with its answer.
In [3]: df
Out[3]:
                                   compound  valuemeasured
0  CNCc1cc(-c2ccccc2Cl)n(S(=O)(=O)c2cccnc2)c1             17
1  CNCc1cc(-c2ccccc2)n(S(=O)(=O)c2ccc(C#N)nc2)c1            110
2  CNCc1cc(-c2ccccc2)n(S(=O)(=O)c2ccc(OC)cc2)c1             30
3  CNCc1cc(-c2ccccc2)n(S(=O)(=O)c2ccc(OC)nc2)c1             13

**Query** Which IC50 is reported for this compound? CNCc1cc(-c2ccccc2C(F)(F)F)n(S(=O)(=O)c2cccnc2)c1
**Result** 75

**Query** Fill blank: measured IC50 of the compound CNCc1cc(-c2ccccc2F)n(S(=O)(=O)c2cccnc2)c1 [VONOPRAZAN FUMARATE] is ____.
**Result** 19

**Query** Entry under review: CNCc1cc(-c2ccccc2)n(S(=O)(=O)c2ccccn2)c1 . Reported IC50?
**Result** 170
